Molecular target: SARM1 TIR domain (Homo sapiens, UniProt Q6SZW1)
Sequence (Q6SZW1 561-724): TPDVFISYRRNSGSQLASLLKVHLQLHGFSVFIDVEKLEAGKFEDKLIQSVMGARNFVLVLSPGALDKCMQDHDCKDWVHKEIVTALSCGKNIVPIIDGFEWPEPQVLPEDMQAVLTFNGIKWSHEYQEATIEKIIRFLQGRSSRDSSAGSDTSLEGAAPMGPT
Test: Continuous fluorescent ENAD hydrolysis assay, SARM1 TIR domain in lysate
Format: biochemical
Conditions: read-out: IC50 of metal ion inhibition of SARM1
Observable: pIC50
// returns pIC50 (minus log10 of molar concentration), number only

Incoming: Consider the compound shown here: [Cl][Ni][Cl] [Ni^2+, NiCl2] What is its recorded pIC50?
Outgoing: 3.22
